The measured values listed here are drawn from ChEMBL document CHEMBL1201862.

Molecular target: FAD-linked sulfhydryl oxidase ALR (Homo sapiens)
Sequence (P55789 whole entry): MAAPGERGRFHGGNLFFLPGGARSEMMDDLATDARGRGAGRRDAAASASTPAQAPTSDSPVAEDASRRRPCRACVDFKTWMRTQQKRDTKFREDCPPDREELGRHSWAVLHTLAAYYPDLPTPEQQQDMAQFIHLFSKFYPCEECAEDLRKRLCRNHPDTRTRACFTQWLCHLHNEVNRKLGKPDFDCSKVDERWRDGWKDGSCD
Experiment: inhibitors of human ALR sulfhydryl oxidase, dose response, biochemical, H2O2 detection, luminescence, cherry-pick (AID 493248)
Calls of active or inactive are those of the source. Rule as the data show it: actives have a measured AC50 and inactives only a lower limit.

{"compound": "Cn1c(CNc2ccc(Br)cc2)nc2ccccc21", "AC50": "14.6 µM (active)"}
{"compound": "Cc1cccc(C)c1NC(=O)NCCCN1CCN(c2ccccc2)CC1", "AC50": "89.4 µM (active)"}
{"compound": "O=C(CCc1ccccc1)N1CCN(c2ccc(F)cc2)CC1", "AC50": "13.8 µM (active)"}
{"compound": "Cc1cccc(Oc2ccc(NC(=O)c3ccccc3C(=O)O)cc2)c1", "AC50": "5.07 µM (active)"}
{"compound": "COc1ccc(-c2nnc(S)[nH]2)cc1", "AC50": "0.008 µM (active)"}
{"compound": "COC(=O)C1CSC(C(=O)OC)N1C(=O)CN1CCN(c2ccccc2)CC1 (stereo unspecified)", "AC50": "2.84 µM (active)"}
{"compound": "COc1cc(C(=O)NCC(c2cccnc2)N2CCN(c3ccccc3)CC2)cc(OC)c1OC (stereo unspecified)", "AC50": "3.41 µM (active)"}
{"compound": "Cc1ccc(-c2nc(Nc3cccc(C)c3)sc2CC(=O)O)cc1", "AC50": "9.95 µM (active)"}
{"compound": "CCCCn1c(NC(C)CC)nc2c1c(=O)[nH]c(=O)n2C (stereo unspecified)", "AC50": "4.01 µM (active)"}
{"compound": "Cc1nnc2sc(SCc3cccc(Cl)c3)nn2c1=O", "AC50": "0.175 µM (active)"}
{"compound": "O=[N+]([O-])c1cccc(CN2CCN(c3cccc4[nH]ccc34)CC2)c1", "AC50": "2.06 µM (active)"}
